Assay: modulators of S6 phosphorylation in cells, primary screen, cell-based, A549, cytoblot, luminescence, serum-stimulated (AID 1158);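 further: serum-stimulated A549 lung adenocarcinoma cells; signal is phosphorylated S6 detected by cytoblot immunostaining with HRP secondary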
Details: A549 phospho-S6 cytoblot, 5 h, higher = more signal
Label Criterion met when z-score is at or above 0.5; anything below gets Criterion not met.

[[record]]
compound = "O=C1O[C@H](c2ccccc2)[C@H](c2ccccc2)N2[C@H]1[C@@H](C(=O)O)[C@]1(C(=O)Nc3ccc(C#CC4=CCCCC4)cc31)[C@H]2c1ccc(O)cc1"
group_label = "Criterion not met"

[[record]]
compound = "Cc1ccc(S[C@]2(C(=O)NCCCN(C)C)CC(=O)N(C3CCCCC3)[C@@H]2c2ccc(CO)cc2)cc1"
group_label = "Criterion not met"

[[record]]
compound = "O=C(CS)NCCCCCNC(=O)[C@@H]1C[C@@H]2C(=O)N3CCC[C@H]3C(=O)N2[C@@H]1c1cccc(OCCO)c1"
group_label = "Criterion not met"

[[record]]
compound = "COCCCNC(=O)[C@@]1(Sc2ccc(C)cc2)CC(=O)N(C2CCCCC2)[C@@H]1c1ccc(CO)cc1"
group_label = "Criterion not met"

[[record]]
compound = "COc1cc2c(cc1OC)CN(C(=O)[C@@H]1[C@H]3C(=O)O[C@H](c4ccccc4)[C@H](c4ccccc4)N3[C@H](c3ccc(OCCO)cc3)[C@@]13C(=O)Nc1ccc(C#CC4(O)CCCCCC4)cc13)CC2"
group_label = "Criterion met"

[[record]]
compound = "C=C(C)c1cc2c(c(CCCCCC)n1)[Si](C(C)C)(C(C)C)OC2"
group_label = "Criterion not met"

[[record]]
compound = "C=C(C)C1CCC(C(O)C2C=CC3C(=O)N(C)C(=O)C3N2N2CCCCC2)CC1 (configuration not stated)"
group_label = "Criterion not met"

[[record]]
compound = "C[C@H]1NC(=O)[C@@]23C(=O)N[C@@H](Cc4ccccc4)C2[C@H](C)[C@@]2(C)O[C@H]2C3/C=C/C/C=C\\CNC(=O)[C@H](Cc2ccccc2)NC1=O (some centres not stated)"
group_label = "Criterion not met"

[[record]]
compound = "CCOC(=O)C1=CC[C@@H](c2cccc(Cl)c2)N(S(=O)(=O)c2ccc(C)cc2)C1"
group_label = "Criterion met"

[[record]]
compound = "CCC[C@@H]1C[C@@]1(CCC)[C@@H](NC(=O)OCc1ccccc1)c1ccc(-c2ccccc2)cc1"
group_label = "Criterion met"

[[record]]
compound = "COc1ccc(C#Cc2ccc3c(c2)[C@]2(C(=O)N3)[C@H](c3ccc(O)cc3)N3[C@H](c4ccccc4)[C@H](c4ccccc4)OC(=O)[C@H]3[C@@H]2C(=O)O)cc1"
group_label = "Criterion met"

[[record]]
compound = "COc1ccc(-c2nc(-c3ccccc3)c3c(c2C)CO[Si]3(C(C)C)C(C)C)cn1"
group_label = "Criterion not met"

[[record]]
compound = "[N-]=[N+]=Nc1ccccc1[C@@H]1OC(c2ccc(OCCCO)cc2)=N[C@]1(Cc1ccccc1)C(=O)NCC(O)CO (some centres not stated)"
group_label = "Criterion not met"

[[record]]
compound = "CCOC(=O)C1=C[C@@H](c2ccccc2)N(S(=O)(=O)c2ccc(C)cc2)[C@H]1c1ccccc1Cl"
group_label = "Criterion not met"

[[record]]
compound = "COC(=O)C(CC#Cc1ccc2c(c1)[C@]1(C(=O)N2)[C@H](c2ccccc2OCCO)N2[C@H](c3ccccc3)[C@H](c3ccccc3)OC(=O)[C@H]2[C@@H]1C(=O)NC[C@H](O)c1ccccc1)C(=O)OC"
group_label = "Criterion met"

[[record]]
compound = "Cc1ccc(S[C@]2(C(=O)O)CC(=O)N(C3Cc4ccccc4C3)[C@@H]2c2ccc(CO)cc2)cc1"
group_label = "Criterion not met"

[[record]]
compound = "COc1ccc(CN(C2=CC[C@@]3(C(N)=O)C(=O)C(Cl)=C(Cl)C(=O)[C@@]3(C#N)C2)S(=O)(=O)c2ccc(Br)cc2)cc1"
group_label = "Criterion met"

